assay: Thermodynamic solubility in FaSSIF pH 6.5 buffer; format: physicochemical; conditions: FaSSIF buffer, 25 °C, pH 6.5, fassif, thermodynamic from solid, Method 2 (LCMS, 25° C.)
READOUT: solubility thermodynamic (µM)

Below: 2 molecules and their reported solubility thermodynamic.
# MOLECULE, READOUT, NUMERIC VALUE
measured = [
    ("CNC(=O)c1[nH]c(C(=O)NC2CC2)cc1O[C@@H](C)c1ccc(Cl)cc1", "solubility thermodynamic", 320),
    ("CNC(=O)c1[nH]c(C(=O)NC2CCC2)cc1OC(C)c1ccc(Cl)cn1 (single isomer, unassigned)", "solubility thermodynamic", 685),
]

[a] C#Cc1ccc(C(C)Oc2cc(C(=O)NCC)[nH]c2C(=O)NC)cc1 (single isomer, unassigned)
[b] CNC(=O)c1[nH]c(C(=O)NC2CC2)cc1O[C@@H](C)c1ccccc1F
Quick one: lower solubility thermodynamic, a or b ? Let me know the label of the one you choose.
a

###

assay: Beagle dog PK study 1 of Example 101 (propylene glycol-based formulation, IV and PO), with clinical observations; type: in vivo; settings: beagle, dog, plasma, iv, 1 mg/kg, dog PK study 1, intravenous, Test Animal 3; read-out: MRTInf—obs
READOUT: MRT inf (h)
Answer in h, number only, no unit symbol.

Bench note: what MRT inf did CNC(=O)c1[nH]c(C(=O)NC2CCC2)cc1O[C@@H](C)c1ccccc1 (stereo in doubt) [Example 101] show?
1.35

###

test: Pharmacokinetics and plasma concentration of Example 101 in Lewis rats after oral administration (CIA study); assay type: in vivo, Lewis rat; settings: Lewis, rat, plasma, po, 10 mg/kg, oral, day 0, 10 mg/kg, per test subject
READOUT: AUC(0-t) (ng·h/mL)
Answer in ng·h/mL, number only, no unit symbol.

Bench note: what AUC(0-t) did CNC(=O)c1[nH]c(C(=O)NC2CCC2)cc1O[C@@H](C)c1ccccc1 (stereo in doubt) [Example 101] show?
14300

###

assay: Pharmacokinetics and plasma concentration of Example 101 in Lewis rats after oral administration (CIA study); assay type: in vivo, Lewis rat; details: Lewis rats, oral, 10 mg/kg, day 20, mean
READOUT: AUClast/D

Bench note: what AUClast/D did CNC(=O)c1[nH]c(C(=O)NC2CCC2)cc1O[C@@H](C)c1ccccc1 (stereo in doubt) show?
528 (ng·h/mL)/(mg/kg)

###

assay: Beagle dog PK study 2 of Example 101 (HPβCD based formulation, IV), with clinical observations; type: in vivo; settings: beagle, dog, plasma, iv, 1 mg/kg, dog PK study 2, IV 1 mg/kg, HPβCD, 0.25 h, mean; read-out: Average plasma concentration, Mean
READOUT: concentration at 0.25 h (ng/mL)
Answer in ng/mL, number only, no unit symbol.

Bench note: what concentration at 0.25 h did CNC(=O)c1[nH]c(C(=O)NC2CCC2)cc1O[C@@H](C)c1ccccc1 (stereo in doubt) show?
842

###

assay: Beagle dog PK study 2 of Example 101 (HPβCD based formulation, IV), with clinical observations; type: in vivo; conditions: beagle, dog, plasma, iv, 1 mg/kg, dog PK study 2, IV 1 mg/kg, HPβCD, 2 h, Test Animal 1; read-out: Plasma concentration
READOUT: concentration at 2 h (ng/mL)
Answer in ng/mL, number only, no unit symbol.

Bench note: what concentration at 2 h did CNC(=O)c1[nH]c(C(=O)NC2CCC2)cc1O[C@@H](C)c1ccccc1 (stereo in doubt) [Example 101] show?
49.3

Entry source: patent US20250263370A1
